Where do these numbers come from? They come from ChEMBL document CHEMBL5042543.

test system: HepG2; assay: Cytotoxicity against human HepG2 cells; format: toxicity, cell-based
measureName: IC50 (µM)
// units = µM; emit number, no label

O=C(O)c1cc(-c2ccc([C@@H]3C[C@@H]4C[C@H]3NC4=O)cc2)c2ccc(-c3ccc(C(F)(F)F)cc3)cc2c1; 9.34

For O=C(O)c1cc(-c2ccc([C@H]3C[C@H]4C[C@@H]3CN4)cc2)c2ccc(-c3ccc(C(F)(F)F)cc3)cc2c1 the compound record lists IC50 as 11

----------
molecular target: Sodium-dependent serotonin transporter (Homo sapiens, UniProt P31645)
Sequence (P31645 whole entry): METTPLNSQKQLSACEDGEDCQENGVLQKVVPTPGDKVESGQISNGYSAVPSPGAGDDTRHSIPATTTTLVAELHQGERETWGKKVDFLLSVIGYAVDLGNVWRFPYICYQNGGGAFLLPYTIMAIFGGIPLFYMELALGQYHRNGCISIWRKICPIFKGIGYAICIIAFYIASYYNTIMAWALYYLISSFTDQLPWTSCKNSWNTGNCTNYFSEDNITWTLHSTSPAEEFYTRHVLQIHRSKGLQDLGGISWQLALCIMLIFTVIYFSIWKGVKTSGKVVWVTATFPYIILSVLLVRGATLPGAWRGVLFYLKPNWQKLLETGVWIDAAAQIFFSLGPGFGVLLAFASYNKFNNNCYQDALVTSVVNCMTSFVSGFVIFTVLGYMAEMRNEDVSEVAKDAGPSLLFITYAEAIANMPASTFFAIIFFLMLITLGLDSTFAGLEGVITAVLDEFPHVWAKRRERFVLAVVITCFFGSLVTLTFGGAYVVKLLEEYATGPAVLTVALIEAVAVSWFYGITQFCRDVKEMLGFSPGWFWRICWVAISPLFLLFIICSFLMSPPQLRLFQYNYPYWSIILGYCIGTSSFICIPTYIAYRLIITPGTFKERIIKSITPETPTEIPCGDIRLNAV
pKi: −log10 of the molar value.
measureName: pKi

Tested on Sodium-dependent serotonin transporter (Homo sapiens, UniProt P31645), the item CN(C)C(=O)COC(=O)c1cc(-c2ccc([C@H]3C[C@H]4C[C@@H]3CN4)cc2)c2ccc(-c3ccc(C(F)(F)F)cc3)cc2c1 showed pKi equal to < 6.00
